Values from PubChem BioAssay

# assay-overview: ATP-based viability of Huh7 replicon cells – cell-based, CellTiter-Glo luminescence, basal, 48 h, cytotoxicity control for HCV replication inhibitor project, primary screen (AID 1143);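 also: Huh7 hepatoma cells carrying a hepatitis C replication reporter with no stimulus; test concentration not given here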
# experimental-parameters: higher = more signal, called active from +8 up or from −8 down
z-score overview
// print number alone

Solved cases below.
Task item: Record request: z-score value, item N#Cc1ccc(NN2C(C(O)C3CC=CCC3)C=CC3C(=O)N(c4ccccc4)C(=O)C32)cc1 (configuration not stated)
Reply: 0.595

Task item: Same again, this time with CC(=O)OCC1C2CC[C@H]3C(OCc4ccc(F)cc4C(F)(F)F)OC[C@]4(C)[C@H]3C2=C(CN4C(=O)OC(C)(C)C)[C@H](C)C1COC(C)=O (some centres not stated)
Reply: -1.87

Task item: Same again, this time with "CN(C)CCCNC(=O)[C@@]1(Cc2ccccc2I)c2ccccc2C(=O)N(C2CCCCC2)[C@H]1c1ccc(CO)cc1"
Reply: -5.91

Task item: Same again, this time with O=C1C2C=CC(C(O)C3CCCCC3)N(n3cnnc3)C2C(=O)N1Cc1ccccc1 (configuration not stated)
Reply: -4.7

Task item: Same again, this time with "COC(=O)[C@@]1(Cc2ccccc2)[C@H]2c3cc(C(=O)N4CCCC4)n(Cc4ccc(OC)c(OC)c4)c3C[C@H]2CN1C(=O)c1ccccc1"
Reply: -1.99

Task item: Same again, this time with C=CCC(OC(C)=O)[C@@H]1[C@@H](N(Cc2ccc(-c3cccc(C(F)(F)F)c3)o2)C(=O)c2ccc(-c3ccccc3)cc2)c2cc(OCCCO)ccc2N1C(=O)c1ccc2ccccc2c1 (some centres not stated)
Reply: -0.87

More entries:
Task item: Record request: z-score value, item O=C1C2C=CC(C(O)c3c(F)cccc3Cl)N(Nc3ccc([N+](=O)[O-])cc3)C2C(=O)N1c1ccccc1 (configuration not stated)
Reply: -1.39

* * *

# assay-overview: budding yeast growth modifiers under rapamycin – strain BY4716, OD600, 96 h, primary screen (AID 1091); also: test concentration not given here
# experimental-parameters: S. cerevisiae BY4716 + rapamycin, higher = more signal, called active from +8 up or from −8 down
Activity calls are given as the source filed them.
z-score overview

Task item: Record request: z-score value, item "COc1ccc([Si](C)(C)[C@@H]2[C@@H](CC(=O)N(CCO)Cc3ccccc3)O[C@]3(C(=O)N(Cc4ccc(I)cc4)c4ccccc43)[C@H]2C)cc1"
Reply: 2.57 (inactive)

Task item: Same again, this time with "O=C1O[C@H](c2ccccc2)[C@H](c2ccccc2)N2[C@H]1[C@@H](C(=O)O)[C@]1(C(=O)Nc3ccc(C#CCCO)cc31)[C@H]2c1ccc(OCCO)cc1"
Reply: -0.502 (inactive)

Task item: Same again, this time with C=CCC(OC(C)=O)[C@@H]1[C@@H](N(Cc2cccc3ccccc23)C(=O)Cc2ccc(OC)cc2)c2cc(OCCCO)ccc2N1C(=O)Cc1ccc2ccccc2c1 (some centres not stated)
Reply: -1.51 (inactive)

More entries:
Task item: Record request: z-score value, item "CN(C)CCCCNC(=O)[C@H]1C[C@H]2C(=O)N3CCC[C@H]3C(=O)N2[C@H]1c1cccc(OCCO)c1"
Reply: 0.751 (inactive)

Task item: Same again, this time with O=C1NC(=O)C2C1C=CC(C(O)c1ccc(B(O)O)cc1)N2Nc1ccc(Cl)cc1Cl (configuration not stated)
Reply: 0.715 (inactive)

Task item: Same again, this time with CC(C)OC(=O)CC(=O)CC(O)c1cccc([N+](=O)[O-])c1 (configuration not stated)
Reply: -2.74 (inactive)

Task item: Same again, this time with "CC(C)=C1C(=O)C(c2ccccc2)=C2CN3C(=O)N(CCc4ccccc4)C(=O)[C@]3(C)[C@H]21"
Reply: 1.48 (inactive)
